biological target: Beta-2 adrenergic receptor (Homo sapiens)
Observed Property: EC50 (nM)

1 = CC(C)(Cc1ccc(NC(=O)CCCNC(=O)C(N)CCCN)cc1)NCC(O)c1ccc(O)c2c1OCC(=O)N2 (centres undefined)
2 = CN(C)CC(=O)NCCCC(=O)Nc1ccc(CC(C)(C)NCC(O)c2ccc(O)c3c2OCC(=O)N3)cc1 (centres undefined)
3 = CC(C)(Cc1ccc(NC(=O)CCCNC(=O)C[N+](C)(C)C)cc1)NCC(O)c1ccc(O)c2c1OCC(=O)N2 (centres undefined)
4 = CC(C)(Cc1ccc(NC(=O)CCCNCCCS(=O)(=O)O)cc1)NCC(O)c1ccc(O)c2c1OCC(=O)N2 (centres undefined)
Problem: Sort the list above on EC50 in ascending fashion. Form entry: ranked labels (order as requested).
Solution: 2, 3, 4, 1
(2: 0.5 nM, 3: 1 nM, 4: 1.8 nM, 1: 5.4 nM)

---

pEC50: −log10 of the molar value.
So I've got pEC50 readings for Beta-2 adrenergic receptor (Homo sapiens, UniProt P07550), take a look.
Observed Property: pEC50

Compound: CC(C)(Cc1ccc(NC(=O)CCCNC(=O)CCN)cc1)NCC(O)c1ccc(O)c2c1OCC(=O)N2 (stereo not drawn)
Assay System: Beta-2 adrenergic receptor (Homo sapiens, UniProt P07550)
Sequence (P07550 whole entry): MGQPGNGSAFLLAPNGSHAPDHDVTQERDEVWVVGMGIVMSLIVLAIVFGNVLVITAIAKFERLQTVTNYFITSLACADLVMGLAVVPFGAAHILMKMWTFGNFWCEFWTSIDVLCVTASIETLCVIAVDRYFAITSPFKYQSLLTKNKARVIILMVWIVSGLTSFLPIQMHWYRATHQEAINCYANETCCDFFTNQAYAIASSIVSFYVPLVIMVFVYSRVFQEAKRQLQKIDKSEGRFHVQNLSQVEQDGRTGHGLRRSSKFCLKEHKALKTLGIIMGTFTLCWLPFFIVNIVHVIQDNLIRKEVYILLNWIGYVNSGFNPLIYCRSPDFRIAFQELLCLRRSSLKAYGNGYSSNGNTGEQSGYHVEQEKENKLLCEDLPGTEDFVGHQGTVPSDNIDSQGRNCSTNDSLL
Observed Property: pEC50
Obs Value: 9.05

I = CC(C)(Cc1ccc(NC(=O)CCCN)cc1)NCC(O)c1ccc(O)c2c1OCC(=O)N2 (stereo not drawn)
II = CC(C)(Cc1ccc(NC(=O)CCCN)cc1)NCC(O)c1cc(O)cc2c1OCC(=O)N2 (stereo not drawn)
Problem: Hi team, can someone confirm which has the larger pEC50: I or II ? Thanks. In your reply, give the label of the chosen option.
Solution: I

I = CC(C)(Cc1ccc(NC(=O)CCCNC(=O)CN)cc1)NCC(O)c1ccc(O)c2c1OCC(=O)N2 (stereo not drawn)
II = CC(C)(Cc1ccc(NC(=O)CCCNC(=O)C[N+](C)(C)C)cc1)NCC(O)c1cc(O)cc2c1OCC(=O)N2 (stereo not drawn)
III = CC(C)(Cc1ccc(NC(=O)CCCN=C(N)N)cc1)NCC(O)c1cc(O)cc2c1OCC(=O)N2 (stereo not drawn)
Problem: # ascending order, key=pEC50 Form entry: ranked labels (order as requested).
Solution: II, III, I

---

biological target: Beta-1 adrenergic receptor (Homo sapiens, UniProt P08588)
Sequence (P08588 whole entry): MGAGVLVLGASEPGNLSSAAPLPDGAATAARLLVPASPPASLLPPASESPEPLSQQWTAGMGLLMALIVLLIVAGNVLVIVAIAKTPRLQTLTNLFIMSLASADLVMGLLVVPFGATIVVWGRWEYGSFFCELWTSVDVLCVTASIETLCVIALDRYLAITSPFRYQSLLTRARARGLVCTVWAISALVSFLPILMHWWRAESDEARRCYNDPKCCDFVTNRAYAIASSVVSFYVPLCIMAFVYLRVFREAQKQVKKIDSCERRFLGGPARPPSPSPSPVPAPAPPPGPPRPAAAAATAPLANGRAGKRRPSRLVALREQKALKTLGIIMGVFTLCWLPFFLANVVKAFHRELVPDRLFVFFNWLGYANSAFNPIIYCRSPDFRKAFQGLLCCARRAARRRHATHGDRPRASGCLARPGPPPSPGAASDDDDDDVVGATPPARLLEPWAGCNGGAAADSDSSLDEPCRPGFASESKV
Observed Property: EC50 (nM)

Consider the reported EC50 for these compounds:
Compound: CC(C)(Cc1ccc(NC(=O)CCCNC(=O)C[N+](C)(C)C)cc1)NCC(O)c1ccc(O)c2c1OCC(=O)N2 (configuration not stated)
EC50, nM: 3.5
--
Compound: CC(C)(Cc1ccc(NC(=O)CCCNCCCS(=O)(=O)O)cc1)NCC(O)c1ccc(O)c2c1OCC(=O)N2 (configuration not stated)
EC50, nM: 9.9
--
Compound: CC(C)(Cc1ccc(NC(=O)CCCN)cc1)NCC(O)c1cc(O)cc2c1OCC(=O)N2 (configuration not stated)
EC50, nM: 11
--
Compound: CC(C)(Cc1ccc(NC(=O)CCCNC(=O)CN)cc1)NCC(O)c1ccc(O)c2c1OCC(=O)N2 (configuration not stated)
EC50, nM: 4.5
--
Compound: CC(C)(Cc1ccc(NC(=O)CCCN)cc1)NCC(O)c1ccc(O)c2c1OCC(=O)N2 (configuration not stated)
EC50, nM: 3.4
--
Compound: CN1CCN(CC(=O)NCCCC(=O)Nc2ccc(CC(C)(C)NCC(O)c3ccc(O)c4c3OCC(=O)N4)cc2)CC1 (configuration not stated)
EC50, nM: 5.7

a = CC(C)(Cc1ccc(NC(=O)CCCNC(=O)C[N+](C)(C)C)cc1)NCC(O)c1cc(O)cc2c1OCC(=O)N2 (configuration not stated)
b = CN(C)CC(=O)NCCCC(=O)Nc1ccc(CC(C)(C)NCC(O)c2ccc(O)c3c2OCC(=O)N3)cc1 (configuration not stated)
Problem: Hi team, can someone confirm which has the larger EC50: a or b ? Thanks. In your reply, give the label of the chosen option.
Solution: a
(a: 28 nM, b: 5.3 nM)
